Test: Cytotoxicity against human MT4 cells assessed as cell viability
Type: cell-based
Label true when CC50 is strictly below 100 µM; otherwise label false.

• Cc1cc(C)cc(S(=O)(=O)n2c(SCC(=O)Nc3ccc(C)cc3Cl)nc3ccc(Cl)cc32)c1 = false
• COC(=O)c1ccc(NC(=O)CSc2nc3ccc(Cl)cc3n2Cc2cc(C)cc(C)c2)c(Cl)c1 = false

Q: Item `COC(=O)c1ccc(NC(=O)CSc2nc3ccccc3n2Cc2cc(C)cc(C)c2)c(Cl)c1` : CC50 beneath 100 µM, strictly?
Ans: false

Q: Item `Cc1cc(C)cc(Cn2c(SCC(=O)Nc3ccccc3Br)nc3ccc(Cl)cc32)c1` : CC50 beneath 100 µM, strictly?
Ans: false

Q: Item `Cc1cc(C)cc(Cn2c(SCC(=O)Nc3ccccc3[N+](=O)[O-])nc3ccccc32)c1` : CC50 beneath 100 µM, strictly?
Ans: false

Q: Item `Cc1cc(C)cc(S(=O)(=O)n2c(SCC(=O)Nc3ccc(S(C)(=O)=O)cc3Cl)nc3ccc(Cl)cc32)c1` : CC50 beneath 100 µM, strictly?
Ans: true

Q: Item `Cc1cc(C)cc(Cn2c(SCC(=O)Nc3ccc(S(N)(=O)=O)cc3Cl)nc3ccccc32)c1` : CC50 beneath 100 µM, strictly?
Ans: false

Q: Item `Cc1cc(C)cc(Cn2c(SCC(=O)Nc3ccc(C)cc3Cl)nc3ccccc32)c1` : CC50 beneath 100 µM, strictly?
Ans: true

###

Assay: Selectivity index, ratio of CC50 for human MT4 cells to EC50 for HIV-1 3B
Assay type: toxicity, cell-based
Details: read-out: Ratio CC50/EC50
Assay metric: selectivity ratio

Please review the following examples before continuing.
- Cc1cc(C)cc(S(=O)(=O)n2c(SCC(=O)Nc3ccccc3[N+](=O)[O-])nc3ccc(Cl)cc32)c1: > 182
- Cc1cc(C)cc(Cn2c(SCC(=O)Nc3ccccc3Br)nc3ccccc32)c1: ≥ 128

Each molecule below has a reported value. Please supply its selectivity ratio.
1. COC(=O)c1ccc(NC(=O)CSc2nc3ccc(Cl)cc3n2Cc2cc(C)cc(C)c2)c(Cl)c1
2. Cc1cc(C)cc(Cn2c(SCC(=O)Nc3ccc(S(C)(=O)=O)cc3Cl)nc3ccc(Cl)cc32)c1
3. Cc1cc(C)cc(S(=O)(=O)n2c(SCC(=O)Nc3ccc(S(C)(=O)=O)cc3Cl)nc3ccccc32)c1
4. Cc1cc(C)cc(Cn2c(SCC(=O)Nc3ccc(S(N)(=O)=O)cc3Cl)nc3ccc(Cl)cc32)c1

Ans:
1. < 1
2. < 1
3. > 5540
4. < 1
